All figures here come from patent US9522886B2.

target: human CB1 receptors (Homo sapiens (Human), UniProt P21554); assay: cAMP assay, CHO cells expressing human CB1 receptors; type: cell-based; conditions: functional cAMP assay, CHO cells expressing human CB1; read-out: human CB1 EC50
Sequence (P21554 whole entry): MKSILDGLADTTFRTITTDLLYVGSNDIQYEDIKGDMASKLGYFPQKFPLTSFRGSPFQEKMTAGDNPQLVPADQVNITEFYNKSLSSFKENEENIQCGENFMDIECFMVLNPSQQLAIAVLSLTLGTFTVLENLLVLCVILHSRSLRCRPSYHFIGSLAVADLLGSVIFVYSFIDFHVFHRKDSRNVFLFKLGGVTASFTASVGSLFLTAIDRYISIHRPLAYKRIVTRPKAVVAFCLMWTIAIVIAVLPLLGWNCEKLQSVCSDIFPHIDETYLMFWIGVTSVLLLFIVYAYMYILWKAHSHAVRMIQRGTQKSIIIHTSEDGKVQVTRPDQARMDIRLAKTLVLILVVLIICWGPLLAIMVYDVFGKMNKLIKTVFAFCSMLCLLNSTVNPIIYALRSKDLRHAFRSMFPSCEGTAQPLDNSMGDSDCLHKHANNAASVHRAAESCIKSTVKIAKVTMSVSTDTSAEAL
# reported EC50; entries follow

- NC(=O)CC(NC(=O)c1ccc(N2CC(F)(F)C2)c(OCC2CC2)n1)C1CCOC1 (centres unmarked) [Example 67]: > 10 µM
- NC(=O)CC1(NC(=O)c2ccc(C3CC3)c(Cc3ccc(F)cc3)n2)CN(C(=O)OCc2ccccc2)C1 [Example 74]: > 10 µM
- O=C(O)CC1(NC(=O)c2ccc(N3CC(F)(F)C3)c(OCC3CC3)n2)CCC1 [Example 69]: > 10 µM
- NC(=O)CC1(NC(=O)c2ccc(N3CC(F)(F)C3)c(OCC3CC3)n2)CCNCC1 [Example 85]: > 10 µM
- CNC(=O)CC1(NC(=O)c2ccc(N3CC(F)(F)C3)c(OCC3CC3)n2)COC1 [Example 37]: > 10 µM
- CC(=O)N1CC(CC(N)=O)(NC(=O)c2ccc(N3CC(F)(F)C3)c(OCC3CC3)n2)C1 [Example 73]: > 10 µM
- CC(Oc1nc(C(=O)NC2(CC(N)=O)COC2)ccc1C1CC1)C(F)(F)F (centres unmarked) [Example 33]: > 10 µM

Field EC50 (system: human CB1 receptors (Homo sapiens (Human), UniProt P21554)) for entry NC(=O)CC1(NC(=O)c2ccc(C3(F)COC3)c(OCC3CC3)n2)COC1 [Example 93] = > 10 µM

---

target: human CB2 receptors (Homo sapiens (Human)); assay: cAMP assay, CHO cells expressing human CB2 receptors; format: cell-based; details: functional cAMP assay, CHO cells expressing human CB2; read-out: human CB2 EC50
Structures can show the parent of a compound that is named as a salt.
EC50 less than 10 nM is TRUE; EC50 greater than or equal to 10 nM is FALSE.

Examples with answers:
* NC(=O)CC1(NC(=O)c2ccc(N3CC(F)(F)C3)c(OCC3CC3)n2)CCOCC1 [Example 60] | TRUE
* CCOC(=O)CC1(NC(=O)c2ccc(C3CC3)c(OCC3CC3)n2)COC1 [Example 1] | FALSE
* CC(C)(C)[C@H](CC(N)=O)NC(=O)c1ccc(C2CC2)c(OCC2CC2)n1 [Example 35] | TRUE
* NC(=O)CC1(NC(=O)c2ccc(C3CC3)c(Cc3ccc(F)cc3)n2)CCNCC1 [Example 66, hydrochloride] | TRUE
* NC(=O)CC1(NC(=O)c2ccc(C(F)(F)F)c(OCC3CC3)n2)CSC1 [Example 97] | FALSE

Problem: Consider the compound NC(=O)CC1(NC(=O)c2ccc(OCC3CC3)c(Cl)n2)COC1 [Example 47] . Is its EC50 strictly less than 10 nM?
Result: FALSE

Problem: Consider the compound CNC(=O)CC1(NC(=O)c2ccc(N3CC(F)(F)C3)c(OCC3CC3)n2)COC1 [Example 37] . Is its EC50 strictly less than 10 nM?
Result: FALSE

Problem: Consider the compound CCOC(=O)CC1(NC(=O)c2ccc(N3CC(F)(F)C3)c(OCC3CC3)n2)CS(=O)(=O)C1 [Example 51] . Is its EC50 strictly less than 10 nM?
Result: FALSE

---

Target: human CB2 receptors (Homo sapiens (Human), UniProt P34972)
Sequence (P34972 whole entry): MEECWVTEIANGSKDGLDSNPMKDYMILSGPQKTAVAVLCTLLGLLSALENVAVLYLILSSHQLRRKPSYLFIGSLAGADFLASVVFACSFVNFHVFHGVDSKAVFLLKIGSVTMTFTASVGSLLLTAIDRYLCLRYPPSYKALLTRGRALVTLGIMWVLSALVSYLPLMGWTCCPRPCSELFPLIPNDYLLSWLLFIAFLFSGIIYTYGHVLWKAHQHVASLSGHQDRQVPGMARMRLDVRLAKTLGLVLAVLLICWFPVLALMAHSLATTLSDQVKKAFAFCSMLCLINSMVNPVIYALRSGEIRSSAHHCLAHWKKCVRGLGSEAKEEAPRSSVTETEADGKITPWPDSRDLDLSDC
Test: cAMP assay, CHO cells expressing human CB2 receptors
Format: cell-based
Settings: functional cAMP assay, CHO cells expressing human CB2; read-out: human CB2 EC50
Experimental: CHO cells expressing human CB1 or CB2 receptors are seeded 17-24 hours prior to the experiment 50.000 cells per well in a black 96 well plate with flat clear bottom (Corning Costar #3904) in DMEM (Invitrogen No. 31331), 1×HT supplement, with 10% fetal calf serum and incubated at 5% CO2 and 37° C. in a humidified incubator. […] The time-resolved energy transfer is measured by a TRF reader (Evotec Technologies GmbH), equipped with a ND:YAG laser as excitation source. […]
EC50 less than 3 nM is 1 (yes); EC50 greater than or equal to 3 nM is 0 (no).

- NC(=O)CC1(NC(=O)c2ccc(N3CC(F)(F)C3)c(OCC3CC3)n2)CCOC1 (centres unmarked) [Example 82]: 1 (yes)
- NC(=O)CC1(NC(=O)c2ccc(C3(F)COC3)c(OCC3CC3)n2)CSC1 [Example 98]: 1 (yes)
- NC(=O)CC1(NC(=O)c2ccc(N3CC(F)(F)C3)c(OCC3CC3)n2)CNC1 [Example 65]: 0 (no)
- CCOC(=O)CC(C)(C)NC(=O)c1ccc(N2CC(F)(F)C2)c(OCC2CC2)n1 [Example 5]: 0 (no)
- CCOC(=O)CC(CC(C)C)NC(=O)c1ccc(C2CC2)c(OCC2CC2)n1 (centres unmarked) [Example 22]: 0 (no)
- NC(=O)CC1(NC(=O)c2ccc(C3(F)CCC3)c(OCC3CC3)n2)COC1 [Example 89]: 0 (no)
- CNC(=O)CC(CCc1ccccc1)NC(=O)c1ccc(N2CC(F)(F)C2)c(OCC2CC2)n1 (centres unmarked) [Example 8]: 0 (no)
- NC(=O)CC1(NC(=O)c2ccc(C3CC3)c(OCC3CC3)n2)CS(=O)(=O)C1 [Example 77]: 1 (yes)

Problem: Consider the compound NC(=O)CC1(NC(=O)c2ccc(C3(O)COC3)c(OCC3CC3)n2)COC1 [Example 94] . Is its EC50 strictly less than 3 nM?
Result: 0 (no)

Problem: Consider the compound NC(=O)CC(NC(=O)c1ccc(C2CC2)c(OCC2CC2)n1)C(F)(F)F (single isomer, unassigned; (-)) [Example 31] . Is its EC50 strictly less than 3 nM?
Result: 0 (no)

---

# reported EC50; entries follow
target: UniProt P21554; assay: cAMP assay, CHO cells expressing human CB1 receptors; type: cell-based

As a guide, the following entries are already answered.
* NC(=O)CC1(NC(=O)c2ccc(C3CC3)c(Cc3ccc(F)cc3)n2)CNC1 | > 10 µM
* NC(=O)[C@@H]1CCCC[C@@H]1NC(=O)c1ccc(C2CC2)c(OCC2CC2)n1 (relative stereo) [Example 12] | > 10 µM
* NC(=O)[C@@H]1CCCC[C@@H]1NC(=O)c1ccc(C2CC2)c(OCC2CC2)n1 (stereo in doubt) [Example 15] | > 10 µM

Please look at the following compound next.
EC50 measured on NC(=O)CC1(NC(=O)c2ccc(C3CC3)c(Cc3ccc(F)cc3)n2)CCOC1 (stereo not shown) = 0.0348 µM

---

molecular target: human CB2 receptors (Homo sapiens (Human), UniProt P34972); assay: cAMP assay, CHO cells expressing human CB2 receptors; format: cell-based; details: functional cAMP assay, CHO cells expressing human CB2; read-out: human CB2 EC50
Result type: EC50 (nM)
# unit: nM | format: bare number

As a guide, the following entries are already answered.
- NC(=O)CC1(NC(=O)c2cccc(-c3ccc(F)c(Cl)c3)n2)CS(=O)(=O)C1: 74.7
- CC(=O)N1CC(CC(N)=O)(NC(=O)c2ccc(N3CC(F)(F)C3)c(OCC3CC3)n2)C1: 120
- CN(C)C(=O)CC1(NC(=O)c2ccc(C3CC3)c(OCC3CC3)n2)COC1: 345
- CC(Oc1nc(C(=O)NC2(CC(N)=O)COC2)ccc1C1CC1)C(F)(F)F (stereo not shown): 145
- NC(=O)CC1(NC(=O)c2ccc(N3CC(F)(F)C3)c(OCC3CC3)n2)CNC(=O)C1 (stereo not shown): 55
- NC(=O)CC(NC(=O)c1ccc(C2CC2)c(OCC2CC2)n1)C(F)(F)F (single isomer, unassigned; (+)) [Example 32]: 137
- CN(C)C(=O)CC1(NC(=O)c2ccc(N3CC(F)(F)C3)c(OCC3CC3)n2)COC1: 298
- NC(=O)C[C@@H](NC(=O)c1ccc(C2CC2)c(OCC2CC2)n1)c1cccc(Cl)c1: 105

EC50 measured on NC(=O)CC1(NC(=O)c2ccc(C3CC3)c(OCC3CCCO3)n2)CS(=O)(=O)C1 (stereo not shown) = 2.4

EC50 measured on NC(=O)CC(NC(=O)c1ccc(N2CC(F)(F)C2)c(OCC2CC2)n1)C1CCOC1 (stereo not shown) = 8.3

EC50 measured on CCOC(=O)C1(CNC(=O)c2ccc(N3CC(F)(F)C3)c(OCC3CC3)n2)CC1 = 60.6

EC50 measured on CCCCC(CC(N)=O)NC(=O)c1ccc(C2CC2)c(OCC2CC2)n1 (single isomer, unassigned; (+)) [Example 10] = 0.3

---

target: human CB2 receptors (Homo sapiens (Human)); assay: cAMP assay, CHO cells expressing human CB2 receptors; assay type: cell-based; conditions: functional cAMP assay, CHO cells expressing human CB2; read-out: human CB2 EC50
Result type: EC50 (nM)
# unit: nM | format: bare number

- NC(=O)CC1(NC(=O)c2ccc(C3CC3)c(OCC3CC3)n2)CSC1: 1.8
- NC(=O)CC1(NC(=O)c2ccc(N3CC(F)(F)C3)c(OCC3CC3)n2)CCN(C(=O)OCc2ccccc2)C1 (centres unmarked): 1330
- CC(C)CS(=O)(=O)c1nc(C(=O)NC2(CC(N)=O)COC2)ccc1C1CC1: 255
- NC(=O)CC1(NC(=O)c2ccc(C3(O)CCC3)c(OCC3CC3)n2)CSC1: 1.1
- CC(C)CSc1nc(C(=O)NC2(CC(N)=O)CS(=O)(=O)C2)ccc1C1CC1: 15.8
- NC(=O)CC(NC(=O)c1ccc(C2CC2)c(OCC2CC2)n1)C1CCOCC1 (centres unmarked) [Example 30]: 8.3
- NC(=O)CC1(NC(=O)c2ccc(C3(O)CCC3)c(OCC3CC3)n2)CS(=O)(=O)C1: 2.2

Please look at the following compound next.
EC50 measured on NC(=O)CC1(NC(=O)c2ccc(N3CC(F)(F)C3)c(OCC3CC3)n2)COC1 = 5.65
